Origin of the recorded values: ChEMBL document CHEMBL3885861

Species on record: Rattus norvegicus
protocol details: Open TG-GATES - Regimen: Daily Repeat
Assay type: toxicity, organism-based, Sprague-Dawley
Set-up: regimen Daily Repeat, gender Male, age 6 weeks
test settings: in vivo, po, 0 mg/kg, […], tissue Plasma, route gavage, dose level Control, time 28 day
Sorting guide: entries reporting LDH beneath 90 IU/L go in the MET pile, the rest go in the NOT MET pile.

compound	label class
NC(=O)N/N=C/c1ccc([N+](=O)[O-])o1 [NITROFURAZONE]	MET
NC(=O)N1c2ccccc2C=Cc2ccccc21 [CARBAMAZEPINE]	NOT MET
CO[C@H]1/C=C/O[C@@]2(C)Oc3c(C)c(O)c4c(O)c(c(/C=N/N5CCN(C)CC5)c(O)c4c3C2=O)NC(=O)/C(C)=C\C=C\[C@H](C)[C@H](O)[C@@H](C)[C@@H](O)[C@@H](C)[C@H](OC(C)=O)[C@@H]1C [RIFAMPIN]	MET
CC(=O)Oc1ccccc1C(=O)O [ASPIRIN]	NOT MET
C[C@H](CS)C(=O)N1CCC[C@H]1C(=O)O [CAPTOPRIL]	NOT MET
COc1ccc(Cc2nccc3cc(OC)c(OC)cc23)cc1OC [PAPAVERINE]	NOT MET
COc1ccc2c(c1)c(CC(=O)O)c(C)n2C(=O)c1ccc(Cl)cc1 [INDOMETHACIN]	MET
O=C(O)c1cn(C2CC2)c2cc(N3CCNCC3)c(F)cc2c1=O [CIPROFLOXACIN]	NOT MET

* * *

Species: Rattus norvegicus
protocol details: Open TG-GATES - Regimen: Single
Assay type: toxicity, organism-based, Sprague-Dawley
Design: regimen Single, gender Male, age 6 weeks
test settings: in vivo, po, 100 mg/kg, 9 h, tissue Plasma, route gavage, dose level Low
If the reported DBIL equals or exceeds 0.08 mg/dL, assign MET. If not, assign NOT MET.

compound	label class
O=C(O)c1cc(/N=N/c2ccc(S(=O)(=O)Nc3ccccn3)cc2)ccc1O	NOT MET
O=C(O)c1cn(C2CC2)c2cc(N3CCNCC3)c(F)cc2c1=O	NOT MET
CCc1cc(C(N)=S)ccn1 [ETHIONAMIDE]	NOT MET
C[C@H](CS)C(=O)N1CCC[C@H]1C(=O)O	MET

* * *

Species on record: Rattus norvegicus
protocol details: Open TG-GATES - Regimen: Single
Format: toxicity, organism-based, Sprague-Dawley
Parameters: regimen Single, gender Male, age 6 weeks
test settings: in vivo, po, 1000 mg/kg, 6 h, tissue Blood, route gavage, dose level High
This listing pairs compounds with measured PT.

compound	unit tag	PT
C[C@H](CS)C(=O)N1CCC[C@H]1C(=O)O [CAPTOPRIL]	s	12.6
O=C(O)c1cc(/N=N/c2ccc(S(=O)(=O)Nc3ccccn3)cc2)ccc1O [SULFASALAZINE]	s	12.7
O=C(O)c1cn(C2CC2)c2cc(N3CCNCC3)c(F)cc2c1=O [CIPROFLOXACIN]	s	12.5
Clc1ccccc1CN1CCc2sccc2C1 [TICLOPIDINE]	s	12.2
CCc1cc(C(N)=S)ccn1 [ETHIONAMIDE]	s	13.8

* * *

Species on record: Rattus norvegicus
protocol details: Open TG-GATES - Regimen: Single
Format: toxicity, organism-based, Sprague-Dawley
Set-up: regimen Single, gender Male, age 6 weeks
test settings: in vivo, po, 0 mg/kg, 3 h, tissue Plasma, route gavage, dose level Control

compound	Cl, meq/L
NC(=O)N1c2ccccc2C=Cc2ccccc21 [CARBAMAZEPINE]	103
NC(=O)N/N=C/c1ccc([N+](=O)[O-])o1 [NITROFURAZONE]	104.8
CCc1cc(C(N)=S)ccn1 [ETHIONAMIDE]	104.8
